Give measured melting point for each item. Keep answers brief.

// query melting point value for entry `Cc1ccccc1C=NNC(=O)c1cc(=O)[nH]c2c1c(=O)n(C)c(=O)n2C`
277 °C (dec.)

Do the same for COc1ccccc1C=NNC(=O)c1cc(=O)[nH]c2c1c(=O)n(C)c(=O)n2C [Compound 5b] please
231 °C (dec.)

Now consider Cn1c(=O)c2c(C(=O)NN=Cc3cccc(Cl)c3)cc(=O)[nH]c2n(C)c1=O [Compound 5f] .
302 °C (dec.)

Another compound to look at: Cn1c(=O)c2c(C(=O)NN=Cc3ccccc3Cl)cc(=O)[nH]c2n(C)c1=O [Compound 5e]
297 °C (dec.)

Next up: COc1ccc(C=NNC(=O)c2cc(=O)[nH]c3c2c(=O)n(C)c(=O)n3C)cc1 [Compound 5d]
231 °C (dec.)

Also Cc1ccc(C=NNC(=O)c2cc(=O)[nH]c3c2c(=O)n(C)c(=O)n3C)cc1 [Compound 5j] ?
284 °C (dec.)

What about this compound? `Cn1c(=O)c2c(C(=O)NN=Cc3ccc(F)cc3)cc(=O)[nH]c2n(C)c1=O`
220.7 to 221.3 °C

Cool, now COc1cccc(C=NNC(=O)c2cc(=O)[nH]c3c2c(=O)n(C)c(=O)n3C)c1 [Compound 5c]
231 °C (dec.)

One more compound: Cn1c(=O)c2c(C(=O)NN=Cc3cccc(F)c3)cc(=O)[nH]c2n(C)c1=O [Compound 5k]
287 °C (dec.)

Now give it for Cn1c(=O)c2c(C(=O)NN=Cc3ccccc3)cc(=O)[nH]c2n(C)c1=O [Compound 5a] too.
286 °C (dec.)

Lookup Cc1cccc(C=NNC(=O)c2cc(=O)[nH]c3c2c(=O)n(C)c(=O)n3C)c1 [Compound 5i]
280 °C (dec.)

Same question, Cn1c(=O)c2c(C(=O)NN=Cc3ccc(Cl)cc3)cc(=O)[nH]c2n(C)c1=O [Compound 5g] this time
305 °C (dec.)
